Molecular target: T1, human CCR7 SNP V317I fused to YPet (human, UniProt P32248 25-378, V317I)
T1 construct: chemokine receptor CCR7, human (hCCR7), naturally occurring SNP V317I; also called CCR7 V317I; hCCR7-YPet V317I; source: HeLa, transiently transfected (pcDNA3 hCCR7-YPet V317I), on cells; not shown: YPet, C-terminal, kept
T1 sequence (looked up): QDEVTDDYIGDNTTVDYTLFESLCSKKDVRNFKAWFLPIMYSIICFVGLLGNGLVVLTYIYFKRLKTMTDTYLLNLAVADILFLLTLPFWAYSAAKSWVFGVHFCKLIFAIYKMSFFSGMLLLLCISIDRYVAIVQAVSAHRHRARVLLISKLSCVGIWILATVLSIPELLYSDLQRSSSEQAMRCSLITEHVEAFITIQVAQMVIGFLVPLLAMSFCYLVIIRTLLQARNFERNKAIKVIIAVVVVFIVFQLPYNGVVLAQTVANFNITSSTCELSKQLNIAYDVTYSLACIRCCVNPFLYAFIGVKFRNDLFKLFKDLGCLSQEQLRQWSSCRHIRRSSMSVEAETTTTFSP
Test: flow cytometry on cells; competition: HeLa cells transiently expressing YPet-tagged CCR7 variants, 37 °C, 30 min, 25 nM CCL19-S6^649P1 with graded concentrations of native unlabelled hCCL19; MFI (binding and uptake)
Settings: one partner purified
MEASUREMENT_LABEL: Kd

Request: For the binder native human CCL19 (hCCL19), unlabelled (ligand, UniProt Q99731 22-98, looked up) GTNDAEDCCLSVTQKPIPGYIVRNFHYLLIKDGCRVPAVVFTTLRGRQLCAPPDQPWVERIIQRLQRTSAKMKRRSS , report Kd.
Result: ~31 nM
